// provenance: ChEMBL document CHEMBL3044692

# ASSAY_PROTOCOL: Toxicity against ip dosed Mus musculus Slc:ddY (mouse) after 8 days
# Format: organism-based
# CONDITION_PARAMETERS: in vivo
ASSAY_METRIC: LD50 at 192 h

>>> value_measured("CC(C)c1ccccc(=O)c1O")
"256 mg/kg"
